System: NOTCH1
Assay: 3' UTR reporter interaction score (median-centred robust z-score of log2 firefly/Renilla activity); higher = less repression of the 3' UTR reporter
Conditions: HEK293T; 48 h
Label Criterion met for high-side 3' UTR reporter interaction score (at or above -0.1) and Criterion not met for low-side 3' UTR reporter interaction score (below it).

Use the examples below as a reference point.
residues | measured on | label value
AGUGUGGCUUUCUUAGAGC | NOTCH1 | Criterion not met
GGUCCAGAGGGGAGAUAGG | NOTCH1 | Criterion met
CAGCAGCACACUGUGGUUUGU | NOTCH1 | Criterion not met
GAGCCAGUUGGACAGGAGC | NOTCH1 | Criterion not met

Has UUAUGGUUUGCCUGGGACUGAG a recorded 3' UTR reporter interaction score greater than or equal to -0.1?
Criterion not met

Has AGGAGGCAGCGCUCUCAGGAC a recorded 3' UTR reporter interaction score greater than or equal to -0.1?
Criterion not met

Has AGCAGCAUUGUACAGGGCUAUCA a recorded 3' UTR reporter interaction score greater than or equal to -0.1?
Criterion not met

Has AAAAGCUGGGUUGAGAGGGCGAA a recorded 3' UTR reporter interaction score greater than or equal to -0.1?
Criterion met

Has UGUCACUCGGCUCGGCCCACUAC a recorded 3' UTR reporter interaction score greater than or equal to -0.1?
Criterion met

Has CGGGUGGAUCACGAUGCAAUUU a recorded 3' UTR reporter interaction score greater than or equal to -0.1?
Criterion met

Has AGCUGUCUGAAAAUGUCUU a recorded 3' UTR reporter interaction score greater than or equal to -0.1?
Criterion not met

Has AUCAGCAAACAUUUAUUGUGUG a recorded 3' UTR reporter interaction score greater than or equal to -0.1?
Criterion met

Has GUUGUGUCAGUUUAUCAAAC a recorded 3' UTR reporter interaction score greater than or equal to -0.1?
Criterion not met

Has AAGGAGCUCACAGUCUAUUGAG a recorded 3' UTR reporter interaction score greater than or equal to -0.1?
Criterion not met

Has AACAUUCAACGCUGUCGGUGAGU a recorded 3' UTR reporter interaction score greater than or equal to -0.1?
Criterion met

----------
System: TP53
Experiment: 3' UTR reporter interaction score (median-centred robust z-score of log2 firefly/Renilla activity); higher = less repression of the 3' UTR reporter
Conditions: HEK293T; 48 h
// thresholds for 3' UTR reporter interaction score classes: group A: < -0.3; group B: ≥ -0.3 and < 0.07; group C: ≥ 0.07

In plain terms, what class is AAAGUGCAUCCUUUUAGAGUGUUAC ?
group C

----------
The entries below come with measured 3' UTR reporter interaction score values attached.
System: EZH2
Experiment: 3' UTR reporter interaction score (median-centred robust z-score of log2 firefly/Renilla activity); higher = less repression of the 3' UTR reporter
Details: HEK293T; 48 h
# answer = number (no unit)

Examples from the recorded data:
residues | 3' UTR reporter interaction score
UCAGUGCAUCACAGAACUUUGU | -0.211
CUCUUGAGGGAAGCACUUUCUGUU | 1.02
AAAGUGCAUCCUUUUAGAGGUUU | -0.589
UAGUACCAGUACCUUGUGUUCA | 0.789
CUUCUUGUGCUCUAGGAUUGU | 0.0594
AACAUUCAUUGCUGUCGGUGGG | 0.0847
AGACCCUGGUCUGCACUCUAU | 2.76
GUCCCUCUCCAAAUGUGUCUUG | 0.871

Entry UCCUGUACUGAGCUGCCCCGAG : reported 3' UTR reporter interaction score = ?
0.519

Entry UUCAACGGGUAUUUAUUGAGCA : reported 3' UTR reporter interaction score = ?
0.563

Entry UCUACAAAGGGAAGCCCUUUCUG : reported 3' UTR reporter interaction score = ?
0.229

Entry CAAAAACCACAGUUUCUUUUGC : reported 3' UTR reporter interaction score = ?
0.177

Entry AUCGUGCAUCCUUUUAGAGUGU : reported 3' UTR reporter interaction score = ?
0.0977

Entry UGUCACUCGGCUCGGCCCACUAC : reported 3' UTR reporter interaction score = ?
0.621

Entry AGGCACGGUGUCAGCAGGC : reported 3' UTR reporter interaction score = ?
0.629
